# System Name: carious tissue in caries infected tooth slices
# Run Description: Staining of caries infected tooth slices with colours, then washing with MQ water, NaCl and NaOH
# Measurement Parameters: concluded from staining after NaCl and NaOH washes
Endpoint Name: kind of binding to carious tissue in infected teeth (conclusion)

NNC(=O)CSCC(=O)Nc1ccc(-c2c3ccc(=O)cc-3oc3cc(O)ccc23)c(C(=O)O)c1	bind irreversibly
NNC(=O)NN1C(=O)c2cc(S(=O)(=O)O)cc3c(N)c(S(=O)(=O)O)cc(c23)C1=O	bind irreversibly
Cc1c(CC(=O)NN)c(=O)oc2cc(N)c(S(=O)(=O)O)cc12	bind irreversibly

Cited source for all entries: patent US9642780B2
